# Method Description: Volume of distribution at steady state in […] at 1 mg/kg, iv or 5 mg/kg, po
# Assay type: ADME, organism-based, Macaca fascicularis
# Measurement Context: in vivo, read-out: Vdss
Quantity Name: Vd

Using the record for `COc1ccc(CC(=O)N2CCC3(CC2)CN([C@@H]2CCc4cc(-c5cc(C)ncn5)ccc42)C3)c(C(N)=O)c1` , report its Vd.
2.2 L/kg

###

# Method Description: physchem
# Measurement Context: buffer, pH 7.4
Exercise: state measured logD for each of the compounds provided.

Using the record for `COc1ccc(OCC(=O)N2CCC3(CC2)CN([C@@H]2CCc4cc(-c5cc(C)ncn5)ccc42)C3)c(C#N)c1` , report its logD.
2.3

Using the record for `COc1ccc(CC(=O)N2CCC3(CC2)CN([C@@H]2CCc4cc(-c5cc(C)ncn5)ccc42)C3)c(C(N)=O)c1` , report its logD.
1.4

Using the record for `COc1ccc(CC(=O)N2CCC3(CC2)CN([C@@H]2CCc4cc(-c5cc(C)ncn5)ccc42)C3)nc1` , report its logD.
1.6

Using the record for `Cc1cc(-c2ccc3c(c2)CC[C@H]3N2CC3(CCN(C(=O)Cc4nn(C)c5ncccc45)CC3)C2)ncn1` , report its logD.
2.1

Using the record for `COc1ccc(CCC(=O)N2CCC3(CC2)CN([C@@H]2CCc4cc(-c5cc(C)ncn5)ccc42)C3)c(C(N)=O)c1` , report its logD.
1.9

Using the record for `COc1ccc(CC(=O)N2CCC3(CC2)CN([C@@H]2CCc4cc(-c5cc(C)ncn5)ccc42)C3)c(NC(C)=O)c1` , report its logD.
1.6

Using the record for `COc1ccc(CC(=O)N2CCC3(CC2)CN([C@@H]2CCc4cc(-c5cc(C)ncn5)ccc42)C3)c(C#N)c1` , report its logD.
2.4

###

# Method Description: Volume of distribution at steady state in Wistar Han rat at 1 mg/kg, iv or 5 mg/kg, po
# Type: ADME, organism-based
# Measurement Context: in vivo, read-out: Vdss
Quantity Name: Vd

Using the record for `COc1ccc(CC(=O)N2CCC3(CC2)CN([C@@H]2CCc4cc(-c5cc(C)ncn5)ccc42)C3)c(C(N)=O)c1` , report its Vd.
8.1 L/kg

###

# Method Description: Oral bioavailability in Wistar Han rat at 5 mg/kg
# Type: ADME, organism-based
# Measurement Context: in vivo
Quantity Name: bioavailability (%)
Kindly provide the numeric value in % only, without the unit symbol.

Using the record for `COc1ccc(CC(=O)N2CCC3(CC2)CN([C@@H]2CCc4cc(-c5cc(C)ncn5)ccc42)C3)c(C(N)=O)c1` , report its bioavailability.
15
